The measured values listed here are drawn from ChEMBL document CHEMBL3797133.

Experiment: in vivo
Conditions: rat, brain homogenate, po, 10 mg/kg
endpointName: concentration at 6 h (nM)
All answers are understood in nM, so give the number only.

Memo: COc1nc(N2C[C@H]3C(=O)N(C)C(N)=N[C@@]3(c3c(F)ccc(F)c3F)C2)nc(C)c1F , reported concentration at 6 h: 88
